Values were extracted from patent US8080529B2.

Please provide measured Percentage of inhibition of cell growth for the entries that follow.
- System: A549
- protocol: Cytotoxicity assay (MTT), A549 cell line
- Format: cell-based
- appliedConditions: 50 μM, 24 h

query: Reported Percentage of inhibition of cell growth, molecule CC[C@H]1OC(=O)[C@H](C)[C@@H](O[C@H]2C[C@@](C)(OC)[C@@H](OC(=O)CCN3CCN(CCCN(CC)CC)CC3)[C@H](C)O2)[C@H](C)[C@@H](O[C@@H]2O[C@H](C)C[C@H](N(C)C)[C@H]2O)[C@](C)(OC)C[C@@H](C)C(=O)N[C@H](C)[C@@H](O)[C@]1(C)O [Example 31] : ____
result: 0%

query: Reported Percentage of inhibition of cell growth, molecule CC[C@H]1OC(=O)[C@H](C)[C@@H](O[C@H]2C[C@@](C)(OC)[C@@H](OC(=O)CCN(CC)CC)[C@H](C)O2)[C@H](C)[C@@H](O[C@@H]2O[C@H](C)C[C@H](N(C)C)[C@H]2O)[C@](C)(O)C[C@@H](C)NC(=O)[C@H](C)[C@@H](O)[C@]1(C)O [Example 2] : ____
result: 3%

query: Reported Percentage of inhibition of cell growth, molecule CC[C@H]1OC(=O)[C@H](C)[C@@H](O[C@H]2C[C@@](C)(OC)[C@@H](O)[C@H](C)O2)[C@H](C)[C@@H](O[C@@H]2O[C@H](C)C[C@H](N(C)C)[C@H]2O)[C@](C)(O)C[C@@H](C)CN(C)[C@H](C)[C@@H](O)[C@]1(C)O [azithromycin, reference compound] : ____
result: 0%

query: Reported Percentage of inhibition of cell growth, molecule CC[C@H]1OC(=O)[C@H](C)C(O[C@H]2C[C@@](C)(OC)[C@@H](OC(=O)CCN(CC)CC)[C@H](C)O2)[C@H](C)[C@@H](O[C@@H]2O[C@H](C)C[C@H](N(C)C)[C@H]2O)[C@](C)(OC)C[C@@H](C)C(=O)[C@H](C)[C@H](O)[C@]1(C)O (stereo partly drawn) [Example 49] : ____
result: 6%

query: Reported Percentage of inhibition of cell growth, molecule CC[C@H]1OC(=O)[C@H](C)[C@@H](O[C@H]2C[C@@](C)(OC)[C@@H](OC(=O)CCN3CCCCCC3)[C@H](C)O2)[C@H](C)[C@@H](O[C@@H]2O[C@H](C)C[C@H](N(C)C)[C@H]2O)[C@](C)(OC)C[C@@H](C)C(=O)N[C@H](C)[C@@H](O)[C@]1(C)O [Example 41] : ____
result: 0%

query: Reported Percentage of inhibition of cell growth, molecule CC[C@H]1OC(=O)[C@H](C)[C@@H](O[C@H]2C[C@@](C)(OC)[C@@H](OC(=O)CCN3CC(C)CC(C)C3)[C@H](C)O2)[C@H](C)[C@@H](O[C@@H]2O[C@H](C)C[C@H](N(C)C)[C@H]2O)[C@](C)(OC)C[C@@H](C)C(=O)N[C@H](C)[C@@H](O)[C@]1(C)O (stereo partly drawn) [Example 37] : ____
result: 0%

query: Reported Percentage of inhibition of cell growth, molecule CC[C@H]1OC(=O)[C@H](C)[C@@H](O[C@H]2C[C@@](C)(OC)[C@@H](OC(=O)CCN(C)CCN(CC)CC)[C@H](C)O2)[C@H](C)[C@@H](O[C@@H]2O[C@H](C)C[C@H](N(C)C)[C@H]2O)[C@](C)(OC)C[C@@H](C)C(=O)N[C@H](C)[C@@H](O)[C@]1(C)O [Example 21] : ____
result: 4%

query: Reported Percentage of inhibition of cell growth, molecule CC[C@H]1OC(=O)[C@H](C)[C@@H](O[C@H]2C[C@@](C)(OC)[C@@H](OC(=O)CCN(C)CCO)[C@H](C)O2)[C@H](C)[C@@H](O[C@@H]2O[C@H](C)C[C@H](N(C)C)[C@H]2O)[C@](C)(OC)C[C@@H](C)C(=O)N[C@H](C)[C@@H](O)[C@]1(C)O [Example 15] : ____
result: 5%

query: Reported Percentage of inhibition of cell growth, molecule CC[C@H]1OC(=O)[C@H](C)[C@@H](O[C@H]2C[C@@](C)(OC)[C@@H](OC(=O)CCN3CCN(CC4CCCN(C)C4)CC3)[C@H](C)O2)[C@H](C)[C@@H](O[C@@H]2O[C@H](C)C[C@H](N(C)C)[C@H]2O)[C@](C)(OC)C[C@@H](C)C(=O)N[C@H](C)[C@@H](O)[C@]1(C)O (stereo partly drawn) [Example 33] : ____
result: 0%

query: Reported Percentage of inhibition of cell growth, molecule CC[C@H]1OC(=O)[C@H](C)[C@@H](O[C@H]2C[C@@](C)(OC)[C@@H](OC(=O)CCN(CC)CC)[C@H](C)O2)[C@H](C)[C@@H](O[C@@H]2O[C@H](C)C[C@H](NC)[C@H]2O)[C@](C)(OC)C[C@@H](C)C(=O)N[C@H](C)[C@@H](O)[C@]1(C)O [Example 54] : ____
result: 0%

query: Reported Percentage of inhibition of cell growth, molecule CC[C@H]1OC(=O)[C@H](C)[C@@H](O[C@H]2C[C@@](C)(OC)[C@@H](OC(=O)CCNC(C)C)[C@H](C)O2)[C@H](C)[C@@H](O[C@@H]2O[C@H](C)C[C@H](N(C)C)[C@H]2O)[C@](C)(OC)C[C@@H](C)C(=O)N[C@H](C)[C@@H](O)[C@]1(C)O [Example 23] : ____
result: 0%

query: Reported Percentage of inhibition of cell growth, molecule CC[C@H]1OC(=O)[C@H](C)[C@@H](O[C@H]2C[C@@](C)(OC)[C@@H](OCCCN(CC)CC)[C@H](C)O2)[C@H](C)[C@@H](O[C@@H]2O[C@H](C)C[C@H](N(C)C)[C@H]2O)[C@](C)(OC)C[C@@H](C)C(=O)N[C@H](C)[C@@H](O)[C@]1(C)O [Example 73] : ____
result: 0%

query: Reported Percentage of inhibition of cell growth, molecule CC[C@H]1OC(=O)[C@H](C)[C@@H](O[C@H]2C[C@@](C)(OC)[C@@H](OC(=O)CCNC3CC3)[C@H](C)O2)[C@H](C)[C@@H](O[C@@H]2O[C@H](C)C[C@H](N(C)C)[C@H]2O)[C@](C)(OC)C[C@@H](C)C(=O)N[C@H](C)[C@@H](O)[C@]1(C)O [Example 40] : ____
result: 0%

query: Reported Percentage of inhibition of cell growth, molecule CC[C@H]1OC(=O)[C@H](C)[C@@H](O[C@H]2C[C@@](C)(OC)[C@@H](O)[C@H](C)O2)[C@H](C)[C@@H](O[C@@H]2O[C@H](C)C[C@H](N(C)C)[C@H]2O)[C@](C)(OC)C[C@@H](C)C(=O)[C@H](C)[C@@H](O)[C@]1(C)O [clarithromycin, reference compound] : ____
result: 0%

query: Reported Percentage of inhibition of cell growth, molecule CC[C@H]1OC(=O)[C@H](C)[C@@H](O[C@H]2C[C@@](C)(OC)[C@@H](OC(=O)CCN(CC)CC)[C@H](C)O2)[C@H](C)[C@@H](O[C@@H]2O[C@H](C)C[C@H](N(C)C)[C@H]2O)[C@](C)(OC)C[C@@H](C)NC(=O)[C@H](C)[C@@H](O)[C@]1(C)O [Example 3] : ____
result: 0%

----------
- Tested on: IL-8
- protocol: Inhibition of IL-8 production by stimulated human peripheral blood leukocytes in vitro
- Format: cell-based
- appliedConditions: Homo sapiens, Leukocyte, 10 μM; LPS-stimulated PBL; read-out: Percentage of inhibition of IL-8 production
measuredParameter: inhibition at 10 µM (%)
# unit: % | format: bare number

query: Reported inhibition at 10 µM, compound CC[C@H]1OC(=O)[C@H](C)[C@@H](O[C@H]2C[C@@](C)(OC)[C@@H](OC(=O)CCN(C)CCN(CC)CC)[C@H](C)O2)[C@H](C)[C@@H](O[C@@H]2O[C@H](C)C[C@H](N(C)C)[C@H]2O)[C@](C)(OC)C[C@@H](C)C(=O)N[C@H](C)[C@@H](O)[C@]1(C)O : ____
result: 0

query: Reported inhibition at 10 µM, compound CC[C@H]1OC(=O)[C@H](C)[C@@H](OC2C[C@@](C)(OC)[C@@H](OC(=O)CCN3CCNCC3)[C@H](C)O2)[C@H](C)[C@@H](OC2O[C@H](C)C[C@H](N(C)C)[C@H]2O)[C@](C)(OC)C[C@@H](C)C(=O)[C@H](C)[C@@H](O)[C@]1(C)O (stereo partly shown) : ____
result: 0

query: Reported inhibition at 10 µM, compound CC[C@H]1OC(=O)[C@H](C)[C@@H](O[C@H]2C[C@@](C)(OC)[C@@H](OC(=O)CCN(CC)CC)[C@H](C)O2)[C@H](C)[C@@H](O[C@@H]2O[C@H](C)C[C@H](N(C)C)[C@H]2O)[C@](C)(O)C[C@@H](C)CN(C)[C@H](C)[C@@H](O)[C@]1(C)O : ____
result: 36

query: Reported inhibition at 10 µM, compound CC[C@H]1OC(=O)[C@H](C)[C@@H](O[C@H]2C[C@@](C)(OC)[C@@H](OCCCN(CC)CC)[C@H](C)O2)[C@H](C)[C@@H](O[C@@H]2O[C@H](C)C[C@H](N(C)C)[C@H]2O)[C@](C)(O)C[C@@H](C)CN(C)[C@H](C)[C@@H](O)[C@]1(C)O : ____
result: 0

query: Reported inhibition at 10 µM, compound CC[C@H]1OC(=O)[C@H](C)[C@@H](O[C@H]2C[C@@](C)(OC)[C@@H](OC(=O)CCN3CCN(CC4CCCN(C)C4)CC3)[C@H](C)O2)[C@H](C)[C@@H](O[C@@H]2O[C@H](C)C[C@H](N(C)C)[C@H]2O)[C@](C)(OC)C[C@@H](C)C(=O)N[C@H](C)[C@@H](O)[C@]1(C)O (stereo partly shown) : ____
result: 0

query: Reported inhibition at 10 µM, compound CC[C@H]1OC(=O)[C@H](C)[C@@H](O[C@H]2C[C@@](C)(OC)[C@@H](OC(=O)CCN(CC)CC)[C@H](C)O2)[C@H](C)[C@@H](O[C@@H]2O[C@H](C)C[C@H](N(C)C)[C@H]2O)[C@](C)(OC)C[C@@H](C)C(=O)[C@H](C)[C@H]2NC(=O)O[C@@]21C : ____
result: 18

query: Reported inhibition at 10 µM, compound CC[C@H]1OC(=O)[C@H](C)[C@@H](O[C@H]2C[C@@](C)(OC)[C@@H](O)[C@H](C)O2)[C@H](C)[C@@H](O[C@@H]2O[C@H](C)C[C@H](N(C)C)[C@H]2O)[C@](C)(O)C[C@@H](C)CN(C)[C@H](C)[C@@H](O)[C@]1(C)O [azithromycin, reference compound] : ____
result: 0
